Biological target: CDK4/Cyclin D3 complex (Homo sapiens, UniProt P11802)
Construct: made in house; host or cells: insect cells co-infected with baculovirus vectors
Sequence (P11802 whole entry): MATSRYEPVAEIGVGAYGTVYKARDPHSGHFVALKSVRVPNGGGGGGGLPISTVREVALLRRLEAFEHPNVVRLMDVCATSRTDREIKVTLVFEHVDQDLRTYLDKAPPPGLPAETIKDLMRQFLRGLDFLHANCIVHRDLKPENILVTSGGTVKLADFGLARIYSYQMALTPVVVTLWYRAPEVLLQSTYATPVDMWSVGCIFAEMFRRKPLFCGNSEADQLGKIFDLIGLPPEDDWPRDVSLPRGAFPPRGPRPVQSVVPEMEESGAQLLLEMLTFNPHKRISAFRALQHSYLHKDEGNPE
Sequence (P30281 whole entry partner): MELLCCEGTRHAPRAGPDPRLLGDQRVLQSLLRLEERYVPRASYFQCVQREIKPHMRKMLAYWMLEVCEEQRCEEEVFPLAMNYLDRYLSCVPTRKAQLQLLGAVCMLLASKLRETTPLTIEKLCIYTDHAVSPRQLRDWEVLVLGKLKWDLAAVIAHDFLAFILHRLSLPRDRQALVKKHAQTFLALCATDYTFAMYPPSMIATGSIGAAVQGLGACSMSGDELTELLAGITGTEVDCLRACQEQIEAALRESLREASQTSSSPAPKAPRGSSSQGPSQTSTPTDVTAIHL
Assay: CDK4/Cyclin D assay
Assay type: biochemical
Settings: Table 2
Description: CDK4/Cyclin D Construct for Assay: A complex of human CDK4 and cyclin D3, or a complex of cyclin DI and a fusion protein of human CDK4 and glutathione-S-transferase (GST-CDK4), was purified using traditional biochemical chromatographic techniques from insect cells that had been co-infected with the corresponding baculovirus expression vectors. CDK2/Cyclin A and CDK4/Cyclin D Assays […]

| SMILES_INPUT | Ki, µM |
| --- | --- |
| Nc1nc(Nc2ccc(S(N)(=O)=O)cc2)sc1-c1nc(O)c(-c2ccccc2O)s1 | 2.1 |
| Nc1nc(Nc2ccc(S(N)(=O)=O)cc2)sc1-c1nc(O)c(-c2ccc(O)cc2)s1 | 11 |
| COc1ccc(/C=C/c2csc(-c3sc(Nc4ccc(S(N)(=O)=O)cc4)nc3N)n2)cc1O | 2.1 |
| Nc1nc(Nc2ccc3c(c2)OCCO3)sc1-c1ccccn1 | 6.2 |
| Nc1nc(Nc2ccc(S(N)(=O)=O)cc2)sc1-c1nc(-c2ccccc2)cs1 | 4.6 |
| COc1ccc(-c2csc(-c3sc(Nc4ccc(S(N)(=O)=O)cc4)nc3N)n2)cc1 | 7.3 |
| Nc1nc(Nc2ccc(S(N)(=O)=O)cc2)sc1-c1nc(-c2cccc(O)c2)cs1 | 0.98 |
| Nc1nc(Nc2ccc(S(N)(=O)=O)cc2)sc1-c1nc(-c2ccc(O)cc2)cs1 | 0.42 |
| Nc1nc(N)c(-c2nc(C(=O)c3ccccc3)cs2)s1 | 21 |
| CCCNc1nc(N)c(-c2nc(-c3cccc(O)c3)cs2)s1 | 13 |
| COc1ccc(Nc2nc(N)c(-c3ccccn3)s2)cc1OC | 11.4 |
| Nc1nc(Nc2ccc(S(N)(=O)=O)cc2)sc1-c1nc(/C=C/c2ccccc2)cs1 | 20 |
| Nc1nc(Nc2ccccc2)sc1-c1ccccn1 | 5.7 |
| CCOC(=O)c1csc(-c2sc(Nc3ccc(S(N)(=O)=O)cc3)nc2N)n1 | 4.5 |
| COc1cc(Nc2nc(N)c(-c3nc(-c4cccc(O)c4)cs3)s2)cc(OC)c1OC | 29 |
| COc1cc(Nc2nc(N)c(-c3nc(-c4cccc(O)c4)no3)s2)cc(OC)c1OC | 6.7 |
